System: NCI-H460
Experiment: NCI tumour cell line growth inhibition, 48 h
Activity calls are given as the source filed them. Cut-off read from the data, not from the text of the source: active = GI50 up to about 1.1 µM and inactive = higher.
Below: a set of entries, each annotated with reported GI50.

Solved cases (4 shown):
- CCOC(=O)c1cc(-c2ccc(OC)c(OC)c2)cn1C: > 10 µM (inactive)
- CN(N=O)C(=O)N(N)CCCCC(NC(=O)OCc1ccccc1)C(=O)OCc1ccccc1 (stereo not given): 32.5 µM (inactive)
- CCOC(=O)C1(N)CCc2[nH][nH]c(=O)c2C1 (stereo not given): > 100 µM (inactive)
- Cc1ccc(N2CCC3(CC2)OCCO3)cc1: > 100 µM (inactive)

Kindly consider the entry below.
**Q:** For the compound CN1CCC(O)C(CNC23CC4CC(CC(C4)C2)C3)C1 (stereo not given) , give its measured GI50 value.
**A:** > 100 µM (inactive)

# credit: ChEMBL document CHEMBL1201862
